Biological target: T1, 4H3413-AA
T1 chain: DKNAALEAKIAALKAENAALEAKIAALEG
Experiment: two-hybrid library CCmax;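 also: natural log of median RNA to DNA barcode read ratio; higher means stronger binding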
Conditions: mean of both orientations
Just a reminder that ties go to n: only interaction score strictly below -1 counts as y.

* DEIAALEAKIAALKAENAALEAENAALKG [4H340-AA] | y
* DEIAALEAEIAALKAKNAALKAENAALEG [4H123-AA] | y
* DKIAALKAEIAALKAENAALEAKNAALKG [4H2648-AA] | y
* DENAALKAEIAALKAENAALKAKIAALEG [4H1629-AA] | n
* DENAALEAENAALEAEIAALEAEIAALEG [4H1153-AA] | y
* DENAALKAKIAALKAENAALEAEIAALKG [4H1874-AA] | y
* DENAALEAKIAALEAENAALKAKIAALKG [4H1310-AA] | n
* DENAALKAEIAALEAKNAALKAEIAALKG [4H1594-AA] | n
* DKIAALKAEIAALEAKNAALKAENAALKG [4H2620-AA] | n
* DENAALEAKNAALKAKIAALKAEIAALEG [4H1513-AA] | y
* DEIAALEAEIAALEAENAALKAKNAALKG [4H32-AA] | n
* DENAALEAKIAALKAEIAALEAKNAALEG [4H1351-AA] | y
* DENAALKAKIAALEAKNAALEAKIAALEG [4H1845-AA] | n

Taken from paper PMC10397247.
